Can you tell me Emax for the items I'm about to list?
measured-target: Kappa-type opioid receptor (Homo sapiens, UniProt P41145)
Sequence (P41145 whole entry): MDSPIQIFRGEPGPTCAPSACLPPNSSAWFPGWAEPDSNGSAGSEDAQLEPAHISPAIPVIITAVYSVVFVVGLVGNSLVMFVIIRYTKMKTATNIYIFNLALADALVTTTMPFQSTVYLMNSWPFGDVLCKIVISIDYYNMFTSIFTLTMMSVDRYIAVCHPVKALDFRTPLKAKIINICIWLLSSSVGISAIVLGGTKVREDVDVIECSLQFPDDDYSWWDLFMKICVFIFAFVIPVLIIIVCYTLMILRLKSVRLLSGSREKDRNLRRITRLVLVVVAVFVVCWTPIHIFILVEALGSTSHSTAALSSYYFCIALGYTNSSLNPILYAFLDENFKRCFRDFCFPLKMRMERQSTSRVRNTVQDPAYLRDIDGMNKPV
protocol-details: Agonist activity at human recombinant kappa opioid receptor expressed in CHO cells after 2 hrs by [35S]-GTPgammaS binding assay relative to control
Assay type: functional, cell-based
State just the number; it will be interpreted in %.

Query: Query (compound): CC(C)CN1CC[C@H]2c3c(ccc(O)c3O)C[C@@H]1[C@]2(O)CCCN(C)C(=O)/C=C/c1ccoc1 ; field requested: Emax
Response: 99.5

Query: Query (compound): CN(CCC[C@]1(O)[C@H]2CCN(CC(F)(F)F)[C@@H]1Cc1ccc(O)c(O)c12)C(=O)/C=C/c1ccoc1 ; field requested: Emax
Response: 89

Query: Query (compound): CN(CCC[C@]1(O)[C@H]2CCN(C)[C@@H]1Cc1ccc(O)c(O)c12)C(=O)/C=C/c1ccoc1 ; field requested: Emax
Response: 90.4

Query: Query (compound): CCN1CC[C@H]2c3c(ccc(O)c3O)C[C@@H]1[C@]2(O)CCCN(C)C(=O)/C=C/c1ccoc1 ; field requested: Emax
Response: 97.4

Query: Query (compound): CN(C(=O)/C=C/c1ccoc1)[C@@H]1CC[C@@]2(O)[C@H]3Cc4ccc(O)c5c4[C@@]2(CCN3CC2CC2)[C@H]1O5 ; field requested: Emax
Response: 98.1

Query: Query (compound): CN(CCC[C@]1(O)[C@H]2CCN(CCF)[C@@H]1Cc1ccc(O)c(O)c12)C(=O)/C=C/c1ccoc1 ; field requested: Emax
Response: 95.2

Query: Query (compound): CCCN1CC[C@H]2c3c(ccc(O)c3O)C[C@@H]1[C@]2(O)CCCN(C)C(=O)/C=C/c1ccoc1 ; field requested: Emax
Response: 86.5

Query: Query (compound): CN(CCC[C@]1(O)[C@H]2CCN(CC(F)F)[C@@H]1Cc1ccc(O)c(O)c12)C(=O)/C=C/c1ccoc1 ; field requested: Emax
Response: 101
